# Measured Target: Brain AChE (Rattus norvegicus)
# Construct: corpora striata dissected free, weighed and homogenized in 19 volumes; from tissue; host or cells: corpora striata of male Wistar rats, crude homogenate in 0.05M phosphate buffer
# Sequence (P37136 32-614): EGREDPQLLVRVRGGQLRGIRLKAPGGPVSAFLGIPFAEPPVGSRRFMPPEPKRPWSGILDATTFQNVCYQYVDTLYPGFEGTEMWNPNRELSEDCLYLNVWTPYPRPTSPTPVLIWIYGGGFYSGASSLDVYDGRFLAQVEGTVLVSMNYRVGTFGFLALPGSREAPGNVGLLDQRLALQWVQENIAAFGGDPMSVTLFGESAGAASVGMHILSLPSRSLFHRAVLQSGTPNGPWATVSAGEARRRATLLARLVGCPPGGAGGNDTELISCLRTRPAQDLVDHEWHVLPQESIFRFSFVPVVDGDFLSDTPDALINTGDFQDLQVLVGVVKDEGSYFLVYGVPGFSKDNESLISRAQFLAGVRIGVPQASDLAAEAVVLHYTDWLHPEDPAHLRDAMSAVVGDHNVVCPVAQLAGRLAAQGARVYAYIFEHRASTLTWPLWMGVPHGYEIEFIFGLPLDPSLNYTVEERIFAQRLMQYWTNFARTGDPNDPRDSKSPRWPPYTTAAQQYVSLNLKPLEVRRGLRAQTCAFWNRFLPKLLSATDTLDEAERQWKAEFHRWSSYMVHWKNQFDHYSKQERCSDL
# Assay Procedure: biochemical
# Set-up: species or system rat (male Wistar)
# Recorded Conditions: rat striatum homogenate; acetylthiocholine 5 mM final; pH 7.2; 10 min preincubation at 37° C.; log-probit analysis; read-out: Inhibitory Concentration (μM) Brain AChE
# Description: Cholinesterases are found throughout the body, both in the brain and in serum. However, only brain acetylcholinesterase (AChE) distribution is correlated with central cholinergic innervation. […] We have determined in vitro inhibition of acetylcholinesterase activity in rat striatum according to the method described below. […] 4. […] If active, IC50 values are determined from the inhibitory activity of subsequent concentrations. Enzyme activity is measured with the Beckman DU-50 spectrophotometer. […]
The following compounds are shown together with reported IC50 values.
Report field: quantity (unit follows the number).

Solved entries:
CN(C)C(=O)Oc1cccc2cc(C3CCNCC3)oc12 | 1.9 µM
CNC(=O)Oc1cccc2cc(-c3ccncc3)oc12 | 1.2 µM

// next entry
Q. Identify measured IC50 corresponding to "CNC(=O)Oc1cccc2cc(C3CCN(C)CC3)oc12"
A. 1.8 µM
